- Test system: 565232-114-T-J1-PDC complex spheroid viability;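 further: spheroids exposed to compounds for 7 days before readout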
- Test description: Anticancer human tumor 565232-114-T-J1-PDC patient-derived bladder carcinoma cell line growth inhibition [CLK]
- Details: curve of first compound; second compound 0.0316 µM
Result type: IC50 (nM)

[[record]]
molecule = "Nc1ccccc1NC(=O)c1ccc(CNC(=O)OCc2cccnc2)cc1 + CN1CCN(c2cc(C(=O)Nc3cc4cc(-c5cnn(C)c5)ccc4cn3)ccn2)CC1"
measured_number = 5260

[[record]]
molecule = "COC1C=CCC(C)C(C)S(=O)(=O)NC(=O)c2ccc3c(c2)N(CC2CCC21)CC1(CCCc2cc(Cl)ccc21)CO3 (stereo not given) + CNC(=O)c1ccc(Nc2nc(OC3CCCC3)c3c(-c4ccc5nc(C)oc5c4)c[nH]c3n2)c(OC)c1"
measured_number = 695


a: NC(=O)C(=Cn1cnc(-c2cc(C(F)(F)F)cc(C(F)(F)F)c2)n1)c1cncnc1 + CNC(=O)c1ccc(Nc2nc(OC3CCCC3)c3c(-c4ccc5nc(C)oc5c4)c[nH]c3n2)c(OC)c1
b: Nc1ccn(C2OC(CO)C(O)C2(F)F)c(=O)n1 (stereo not given) + CNC(=O)c1ccc(Nc2nc(OC3CCCC3)c3c(-c4ccc5nc(C)oc5c4)c[nH]c3n2)c(OC)c1
c: CCc1c2c(nc3ccc(O)cc13)-c1cc3c(c(=O)n1C2)COC(=O)[C@]3(O)CC + CNC(=O)c1ccc(Nc2nc(OC3CCCC3)c3c(-c4ccc5nc(C)oc5c4)c[nH]c3n2)c(OC)c1
Req: Rank descending by IC50. Answer format: the labels, ordered as requested.
Resp: a, b, c
(a: 240 nM, b: 36 nM, c: 8.14 nM)
